Assignment: determine reported pIC50 for the given compounds.
Tested on: BT474 [human breast carcinoma, overexpressing HER2 (ErbB2)]
TEST NAME: In vitro tumor cell proliferation assay (Cell Titer-Glo luminescent cell viability), BT474 cells
Format: cell-based
ASSAY CONDITIONS: BT-474, 72 h, 72 hours of drug exposure, Cell Titer-Glo readout, read-out: IC50, anti-proliferative activity in BT474 cells
pIC50: −log10 of the molar value. Where a name gives a salt, the structure may show the parent alone.

Query: Indicate the recorded pIC50 value for this compound: Clc1cc(Nc2ncnc3sc4cc(CCBr)ccc4c23)ccc1OCc1ccccn1 [Example 83]
Result: ≥ 6.30

Query: Fill in pIC50 for record Fc1cccc(Cn2ncc3cc(Nc4ncnc5sc6cc(CCN7CCOCC7)ccc6c45)ccc32)c1 [Example 129]
Result: ≥ 6.30

Query: Given OC[C@H](O)COc1ccc2c(c1)sc1ncnc(Nc3ccc(OCc4cccc(F)c4)c(Cl)c3)c12 [Example 36] , respond with its pIC50.
Result: ≥ 6.30

Query: Recall and state the measured pIC50 for COCCNCCc1ccc2c(c1)sc1ncnc(Nc3ccc(OCc4cccc(F)c4)c(Cl)c3)c12 [Example 9] .
Result: ≥ 6.30

Query: Retrieve pIC50 measured for Oc1ccc2c(c1)sc1ncnc(Nc3ccc(OCc4ccccn4)c(Cl)c3)c12 [Example 110] and print it.
Result: ≥ 5.30

Query: Tell me measured pIC50 for Fc1cccc(COc2ccc(Nc3ncnc4sc5cc(CCBr)ccc5c34)cc2Cl)c1 [Example 3] please.
Result: ≥ 6.30

Query: Output pIC50 of CCN1CCN(C(=O)CCc2ccc3c(c2)sc2ncnc(Nc4ccc(OCc5cccc(F)c5)c(Cl)c4)c23)CC1 [Example 67]
Result: ≥ 5.30

Query: Entry OCC(O)c1ccc2c(c1)sc1ncnc(Nc3ccc(OCc4cccc(F)c4)c(Cl)c3)c12 (racemic) [Example 25] needs its pIC50 filled in; supply it.
Result: ≥ 6.30

Query: Report pIC50, nothing else, for this compound: OC[C@@H](O)c1ccc2c(c1)sc1ncnc(Nc3ccc(OCc4cccc(F)c4)c(Cl)c3)c12 [Example 26]
Result: ≥ 6.30

Query: Give the reported value of pIC50 for this record: C=Cc1ccc2c(c1)sc1ncnc(Nc3ccc4c(cnn4Cc4cccc(F)c4)c3)c12 [Example 114]
Result: ≥ 6.30

Query: Recall and state the measured pIC50 for O=C(Cc1ccc2c(c1)sc1ncnc(Nc3ccc(OCc4cccc(F)c4)c(Cl)c3)c12)NCCN1CCOCC1 [Example 30] .
Result: ≥ 6.30

Query: Give pIC50 for the following compound: Fc1cccc(COc2ccc(Nc3ncnc4sc5cc(CCN6CCSCC6)ccc5c34)cc2Cl)c1 [Example 15]
Result: ≥ 6.30

Query: Please give measured pIC50 of the following entry: CS(=O)(=O)CCNCCc1ccc2c(c1)sc1ncnc(Nc3ccc(OCc4ccccn4)c(Cl)c3)c12 [Example 85, trifluoroacetate]
Result: ≥ 6.30

Query: For the compound C=Cc1ccc2c(c1)sc1ncnc(Nc3ccc(OCc4cccc(F)c4)c(Cl)c3)c12 [Example 14] , give its reported pIC50.
Result: ≥ 6.30

Query: Return pIC50 for the following compound: OC[C@@H](O)c1ccc2c(c1)sc1ncnc(Nc3ccc4c(cnn4Cc4cccc(F)c4)c3)c12 [Example 116]
Result: ≥ 6.30

Query: Please report the measured pIC50 for CN(C)[C@H]1CCN(C(=O)CCc2ccc3c(c2)sc2ncnc(Nc4ccc(OCc5cccc(F)c5)c(Cl)c4)c23)C1 [Example 68]
Result: ≥ 5.30

Query: Please give the documented pIC50 of OC[C@H](O)c1ccc2c(c1)sc1ncnc(Nc3ccc(OCc4cccc(F)c4)c(Cl)c3)c12 [Example 27]
Result: ≥ 6.30

Query: Name the recorded pIC50 of the compound listed here: NS(=O)(=O)OCCc1ccc2c(c1)sc1ncnc(Nc3ccc(OCc4ccccn4)c(Cl)c3)c12 [Example 109]
Result: ≥ 6.30

Query: Query pIC50 for OC[C@H](O)c1ccc2c(c1)sc1ncnc(Nc3ccc(OCc4ccccn4)c(Cl)c3)c12 [Example 75]
Result: ≥ 6.30

Query: Name the recorded pIC50 of the compound listed here: O=C(Cc1ccc2c(c1)sc1ncnc(Nc3ccc(OCc4cscn4)c(Cl)c3)c12)N1CCOCC1 [Example 137]
Result: ≥ 5.30

Query: Supply pIC50 value. Item: OCCc1ccc2c(c1)sc1ncnc(Nc3ccc4c(cnn4Cc4cccc(F)c4)c3)c12 [Example 127]
Result: ≥ 6.30

Query: Read off the recorded pIC50 for CN(C)CCNC(=O)Cc1ccc2c(c1)sc1ncnc(Nc3ccc(OCc4ccccn4)c(Cl)c3)c12 [Example 100]
Result: ≥ 6.30

Query: For the compound CN1CCN(CCc2ccc3c(c2)sc2ncnc(Nc4ccc(OCc5ccccn5)c(Cl)c4)c23)CC1 [Example 91] , give its reported pIC50.
Result: ≥ 6.30

Query: For the compound COCCCNc1ccc2c(c1)sc1ncnc(Nc3ccc(OCc4ccccn4)c(Cl)c3)c12 [Example 79, trifluoroacetate] , give its reported pIC50.
Result: ≥ 5.30

Query: Please report the measured pIC50 for Clc1cc(Nc2ncnc3sc4cc(CCN5CCNCC5)ccc4c23)ccc1OCc1ccccn1 [Example 89, trifluoroacetate]
Result: ≥ 6.30

Query: Given COCCN1CCN(C(=O)Cc2ccc3c(c2)sc2ncnc(Nc4ccc(OCc5ccccn5)c(Cl)c4)c23)CC1 [Example 104] , respond with its pIC50.
Result: ≥ 6.30

Query: Identify measured pIC50 corresponding to Oc1ccc2c(c1)sc1ncnc(Nc3ccc(OCc4cccc(F)c4)c(Cl)c3)c12 [Example 34]
Result: ≥ 6.30

Query: Item COC[C@H]1CCCN1CCc1ccc2c(c1)sc1ncnc(Nc3ccc(OCc4cccc(F)c4)c(Cl)c3)c12 [Example 5] : provide pIC50
Result: ≥ 6.30

Query: Identify measured pIC50 corresponding to CS(=O)(=O)CCNC(=O)Cc1ccc2c(c1)sc1ncnc(Nc3ccc4c(cnn4Cc4cccc(F)c4)c3)c12 [Example 122]
Result: ≥ 6.30

Query: Look up and report measured pIC50 for this entry: O=C(O)Cc1ccc2c(c1)sc1ncnc(Nc3ccc(OCc4ccccn4)c(Cl)c3)c12 [Example 94]
Result: ≥ 5.30

Origin of the recorded values: patent US7750017B2
